These measurements were taken from patent US20230234942A1.

# Test system: Endogenous Huntingtin Protein
# ASSAY: Endogenous Huntingtin Protein Assay (ELISA-based MSD electrochemiluminescence)
# Type: cell-based
# EXPERIMENTAL PARAMETERS: Table 2; MSD plates coated with MW1 (expanded polyglutamine) or MAB2166 capture antibody; "inactive" = result above the detection limit of the assay
pIC50: −log10 of the molar value.
OUTCOME MEASURE: pIC50

Some solved entries appear below for comparison.
MOLECULE	ASSAY RESULT
C[C@H]1CN(c2ncc(-c3ccc(-c4cn[nH]c4F)cc3O)nn2)C[C@@H](C2CC2)N1	6.95
COC1(C2CN(c3ncc(-c4ccc(-c5cn[nH]c5)cc4O)nn3)CCN2)CC1 (centres unmarked)	7.55
[2H]C([2H])([2H])n1cc(-c2ccc(-c3cnc(N4CCN[C@@H](C(C)C)C4)nn3)c(O)c2)cn1	6.81
CC(C)(O)C1CN(c2ncc(-c3ccc(-n4nccn4)cc3O)nn2)CCN1 (centres unmarked)	7.91

P: Cc1nc2cnc(-c3ccc(-c4cnc(N5C[C@@H](C)N[C@@H](C)C5)nn4)c(O)c3)cn2n1 [Cpd 167]
Q: CC(C)[C@H]1CN(c2ncc(-c3ccc(-c4ncn(C)n4)cc3O)nn2)CCN1
Task: // compare measured pIC50, left P , right Q , return larger Give the label under which the chosen entry appears.
Output: P

A: Oc1cc(-c2cn[nH]c2)ccc1-c1cnc(N2CCNC(C3CCC3)C2)nn1 (centres unmarked)
B: Cn1cc(-c2ccc(-c3cnc(N4CCN[C@@H](C5CC5)C4)nn3)c(O)c2)cn1
Task: // compare measured pIC50, left A , right B , return larger Give the label under which the chosen entry appears.
Output: B
(B: 7.96, A: 7.48)
